- Test system: UO-31
- assay method text: NCI tumour cell line growth inhibition, 48 h
Calls of active or inactive are those of the source. No stated cut-off is given here; in the data, active = GI50 up to about 1.1 µM and inactive = higher.
Recorded GI50 for the following compounds

- compound: "O=C(Nc1ccc(Cl)cc1Cl)C1C(=O)C(=O)N(c2ccc(Cl)cc2Cl)C1=O (stereo not given)"
  GI50: "> 100 µM (inactive)"
- compound: "COc1nc2c(c(=O)n1C)N(C(C)=O)C1C(N2)OCC(OC(C)=O)C1OC(C)=O (stereo not given)"
  GI50: "> 10 µM (inactive)"
- compound: "CCOC(=O)C1=C(C)C2C3C(=O)OC(=O)C3C1(C)C1C(=O)OC(=O)C21 (stereo not given)"
  GI50: "> 100 µM (inactive)"
- compound: "Fc1ccc(F)c(C2SCc3nc4ccccc4n32)c1 (stereo not given)"
  GI50: "41.3 µM (inactive)"
- compound: "CCOC(=O)C1=C(C(=O)c2ccc(C)cc2)C(c2cccc([N+](=O)[O-])c2)C(C(=O)c2ccc(C)cc2)=C(C(=O)OCC)N1"
  GI50: "11.4 µM (inactive)"

* * *

- Tested on: CCRF-CEM
- assay method text: NCI tumour cell line growth inhibition, 48 h
Active and inactive are the calls of the source. Cut-off read from the data, not from the text of the source: active = GI50 up to about 1.1 µM and inactive = higher.

- compound: "COC(=O)C(CCSC)NC(=O)CNC(=O)CSc1nnc(COc2ccc(Cl)cc2)n1-c1ccccc1 (stereo not given)"
  GI50: "7.83 µM (inactive)"
- compound: "O=C(Nc1cc(Cl)c(I)c(Cl)c1)C(F)(F)F"
  GI50: "24.8 µM (inactive)"
- compound: "N#C/C(=C1\\SC(/N=N/c2ccccc2)C(=O)N1c1ccccc1)c1nc2ccccc2[nH]1 (stereo not given)"
  GI50: "42.8 µM (inactive)"
- compound: "N#CC1=C(S)N(C2OC(CO)C(O)C(O)C2O)C(c2ccccc2)=CC1c1ccccc1 (stereo not given)"
  GI50: "37.2 µM (inactive)"
- compound: "CCCC(=O)c1ccc(=O)n(C)c1"
  GI50: "> 100 µM (inactive)"

* * *

- Tested on: SNB-75
- assay method text: NCI tumour cell line growth inhibition, 48 h
Calls of active or inactive are those of the source. Rule as the data show it: active = GI50 up to about 1.1 µM and inactive = higher.
Classes used: yes for active, no for inactive

- compound: "C=C1CC/C=C(\\C)CCC[C@H](C)[C@@H](O)[C@@H]2OC(=O)C(=C)[C@@H]2C[C@H]1O"
  target system: "SNB-75"
  class assignment: "no"
- compound: "O=CC(I)=C(c1ccccc1)c1ccccc1"
  target system: "SNB-75"
  class assignment: "no"
- compound: "CN(C)CC[N+](C)(C)[BH2-]C(O)O"
  target system: "SNB-75"
  class assignment: "no"
- compound: "N#CCCN(CCC#N)C(=O)c1cccc(C(=O)N(CCC#N)CCC#N)c1"
  target system: "SNB-75"
  class assignment: "no"
- compound: "CCOC(=O)c1c(Br)c(-c2ccc(OC)cc2)c(Br)n1C"
  target system: "SNB-75"
  class assignment: "no"
- compound: "COc1cc(C2c3cc4c(cc3OC(C)(N3CCCC3)C2C)OCO4)cc(OC)c1OC (stereo unspecified)"
  target system: "SNB-75"
  class assignment: "yes"

* * *

Recorded GI50 for the following molecules
- Test system: U-251
- assay method text: NCI tumour cell line growth inhibition, 48 h
Calls of active or inactive are those of the source. Rule as the data show it: active = GI50 up to about 1.1 µM and inactive = higher. Positions of bridges follow the written chain, without caps; N, C: chain ends. Non-standard residues stand in square brackets, D forms with d. Residues, ends and D or L forms follow the SMILES beside them. Aib = CC(C)(N)C(=O)O; βAla = NCCC(=O)O
measurement name: GI50

- molecule: "Sc1nnc(COc2ccc(Cl)cc2Cl)[nH]1"
  measurement name: "GI50"
  result: "> 100 µM (inactive)"
- molecule: "O=C(NCCCNCCNC(=O)c1cc(-c2ccccc2)nc2ccccc12)c1cc(-c2ccccc2)nc2ccccc12"
  measurement name: "GI50"
  result: "1.85 µM (inactive)"
- molecule: "O=C(NCc1ccccc1)c1cc2ccccc2o/c1=N\\c1ccccc1F"
  measurement name: "GI50"
  result: "35.5 µM (inactive)"
- molecule: "Cc1csc2nc3c(cnn3C)c(=S)n12"
  measurement name: "GI50"
  result: "95.3 µM (inactive)"
- molecule: "CC1(C)NC(=O)C(NC(=O)C(N)CC(=O)O)CCCCNC(=O)CCNC1=O (stereo unspecified) (H-DK[Aib][βAla]; lactam 2-C; configuration not given here)"
  measurement name: "GI50"
  result: "> 100 µM (inactive)"
- molecule: "NC(=O)N=C(NCc1ccccc1)NCc1ccccc1"
  measurement name: "GI50"
  result: "> 100 µM (inactive)"
- molecule: "COC(=O)C(CCSC)NC(=O)CSc1nnc(COc2ccc(Cl)cc2)n1-c1ccccc1 (stereo unspecified)"
  measurement name: "GI50"
  result: "17.1 µM (inactive)"
- molecule: "CC1CC/C(=C\\c2ccc(F)cc2)C(=O)/C1=C/c1ccc(F)cc1 (stereo unspecified)"
  measurement name: "GI50"
  result: "4.95 µM (inactive)"
- molecule: "CCCCNc1nc(O)c2[nH]cnc2n1"
  measurement name: "GI50"
  result: "> 100 µM (inactive)"
- molecule: "CCOP(=O)(OCC)c1c(C(=O)OC)cc(=O)[nH]c1-c1ccc(C)cc1"
  measurement name: "GI50"
  result: "13.1 µM (inactive)"
- molecule: "CC(=O)CC[N+](C)(C)C"
  measurement name: "GI50"
  result: "34.6 µM (inactive)"
